# Assayed target: T1, human EphA2 (Homo sapiens, UniProt P29317)
# T1 construct: a protein of the extracellular region of each human Eph receptor fused with the SEAP protein and the His tag; made in house; host or cells: Expi293F cells (culture supernatant)
# T1 sequence (P29317 24-537 limits assumed): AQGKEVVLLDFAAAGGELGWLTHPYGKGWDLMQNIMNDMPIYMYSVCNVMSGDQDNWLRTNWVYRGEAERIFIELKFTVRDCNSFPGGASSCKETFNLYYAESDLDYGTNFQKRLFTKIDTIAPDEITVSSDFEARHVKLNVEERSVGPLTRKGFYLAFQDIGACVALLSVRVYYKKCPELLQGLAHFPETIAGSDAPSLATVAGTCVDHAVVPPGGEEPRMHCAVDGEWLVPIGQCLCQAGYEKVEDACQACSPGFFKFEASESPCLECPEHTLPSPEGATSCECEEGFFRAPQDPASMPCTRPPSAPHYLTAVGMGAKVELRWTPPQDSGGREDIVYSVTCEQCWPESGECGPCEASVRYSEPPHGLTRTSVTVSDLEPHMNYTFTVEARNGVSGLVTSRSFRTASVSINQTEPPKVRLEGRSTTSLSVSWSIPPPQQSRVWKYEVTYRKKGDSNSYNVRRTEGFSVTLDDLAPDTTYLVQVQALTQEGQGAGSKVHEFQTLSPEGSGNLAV
# Assay summary: Selectivity ELISA of humanized antibodies for human Eph receptor
# Format: binding
# Conditions: coated protein 1 nM
Metric name: hEphA2-SEAP-: absorbance at 450 nm, percentage with respect to hEphA4-SEAP-His as 100% (%)
The answer is to be given in %; state only the numeric part.

Field: example entries. Status: answers known.
- Molecule: "151 (antibody, V domains shown, synthetic humanized antibody heavy chain variable region sequence; synthetic humanized antibody light chain variable region sequence) VH: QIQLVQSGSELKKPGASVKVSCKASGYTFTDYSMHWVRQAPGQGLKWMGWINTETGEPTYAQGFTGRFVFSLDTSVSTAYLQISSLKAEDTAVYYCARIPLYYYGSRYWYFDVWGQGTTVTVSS VL: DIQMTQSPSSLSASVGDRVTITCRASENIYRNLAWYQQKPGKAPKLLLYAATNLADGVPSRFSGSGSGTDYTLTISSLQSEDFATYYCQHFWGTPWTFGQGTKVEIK"
  Experimental value: 6.9
- Molecule: "76 (antibody, V domains shown, synthetic humanized antibody heavy chain variable region sequence; synthetic humanized antibody light chain variable region sequence) VH: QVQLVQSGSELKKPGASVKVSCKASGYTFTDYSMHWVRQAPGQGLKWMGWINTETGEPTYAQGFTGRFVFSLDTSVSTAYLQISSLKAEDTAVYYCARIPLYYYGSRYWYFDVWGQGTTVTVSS VL: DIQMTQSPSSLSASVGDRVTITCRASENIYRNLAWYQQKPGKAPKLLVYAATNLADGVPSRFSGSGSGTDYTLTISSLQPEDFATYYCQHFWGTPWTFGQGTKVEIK"
  Experimental value: 4.8

Inquiry: Fill in the blank: the reported hEphA2-SEAP-: absorbance at 450 nm, percentage with respect to hEphA4-SEAP-His as 100% of 94 (antibody, V domains shown, constant regions without entry; synthetic humanized antibody light chain variable region sequence; synthetic humanized antibody heavy chain variable region sequence) VL: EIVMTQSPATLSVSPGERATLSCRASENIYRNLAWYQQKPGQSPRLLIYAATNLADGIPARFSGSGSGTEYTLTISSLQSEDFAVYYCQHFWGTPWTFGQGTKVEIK VH: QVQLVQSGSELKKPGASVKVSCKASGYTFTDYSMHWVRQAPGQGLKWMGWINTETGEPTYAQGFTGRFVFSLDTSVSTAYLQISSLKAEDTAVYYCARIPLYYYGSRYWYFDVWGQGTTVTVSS is ____.
Reply text: 6.4
